Recorded GI50 values for a group of compounds are listed next.
Tested on: HCT-116
Test: NCI tumour cell line growth inhibition, 48 h
Calls of active or inactive are those of the source. Rule as the data show it: active = GI50 up to about 1.1 µM and inactive = higher.

>  <compound>
CN(C)c1ccc(/C=N\NC(=O)c2ccccc2Nc2ccccc2C(=O)N/N=C/c2ccc(N(C)C)cc2)cc1

>  <GI50>
> 100 µM (inactive)

$$$$
>  <compound>
O=C(O)c1nc2ccccc2nc1Nc1ccc(Cl)c(Cl)c1

>  <GI50>
22.5 µM (inactive)

$$$$
>  <compound>
Cn1nnc2c(C(N)=O)ncn2c1=O [TEMOZOLOMIDE]

>  <GI50>
> 100 µM (inactive)

$$$$
>  <compound>
CCCCCCCCCCCCCCCCCCNc1ccn(C2OC(CO)C(O)C2O)c(=O)n1 (stereo unspecified)

>  <GI50>
> 100 µM (inactive)

$$$$
>  <compound>
CCOC(=O)/C=C1\CCCC12OCCO2

>  <GI50>
54.1 µM (inactive)

$$$$
>  <compound>
COc1ccccc1N1CCN(CCCCNC(=O)c2ccc([N+](=O)[O-])o2)CC1

>  <GI50>
10.3 µM (inactive)

$$$$
>  <compound>
COc1cc(C2OC(N)=C(C#N)C3=C2C(C)CCC3)cc(OC)c1OC (stereo unspecified)

>  <GI50>
> 100 µM (inactive)

$$$$
>  <compound>
CC(C)(C)OC(=O)N1Cc2cc(O)ccc2C[C@H]1C(=O)O

>  <GI50>
> 100 µM (inactive)

$$$$
>  <compound>
Cc1ccc(C)c(NC(=O)C(=O)CC(=O)c2cccc3ccccc23)c1

>  <GI50>
> 100 µM (inactive)

$$$$
>  <compound>
CN(C)Cc1nsc(N(C)C)n1

>  <GI50>
> 100 µM (inactive)

$$$$
>  <compound>
CCCCn1c(C)c2c(c1C)C(=O)N(CC(O)CN1CCc3ccccc3C1)C2=O (stereo unspecified)

>  <GI50>
47.9 µM (inactive)

$$$$
